Let's look at some compounds and their measured Total Cell Count.
- System: HEK-293T
- assay_notes: Multiplex assay against HEK293T
- Type: toxicity, cell-based
- run_parameters: human, 12 h, 1 µM, compound concentration 1 uM, replicate 1
test_readout: Total Cell Count

| compound | observed_result |
| --- | --- |
| CN(C)C/C=C/C(=O)Nc1ccc(C(=O)N2CCCC(Nc3ncc(Cl)c(-c4c[nH]c5ccccc45)n3)C2)cc1 (centres undefined) | 227 |
| CCCCCCNC(=O)Nc1ccc(S(=O)(=O)Nc2ccc(CCNC[C@H](O)COc3ccc(O)cc3)cc2)cc1 | 494 |
| CC(C)(O)C(=O)N1CCN(c2ccc(C(F)(F)F)c(C3=C(c4c[nH]c5ccccc45)C(=O)NC3=O)c2)CC1 | 381 |
| Cc1sc2c(c1C)C(c1ccc(Cl)cc1)=N[C@H](CC(=O)OC(C)(C)C)c1nnc(C)n1-2 | 478 |

----------
- Tested on: HEK-293T
- assay_notes: Multiplex assay against HEK293T
- Assay type: toxicity, cell-based
- run_parameters: human, 24 h, 10 µM, compound concentration 10 uM, replicate 2
Classify as follows. Reported Population Tubulin-Different-Phenotype (%) greater than or equal to 40%: Fulfilled. Reported Population Tubulin-Different-Phenotype (%) below: Not fulfilled.

| compound | qualitative_label |
| --- | --- |
| Cl.Cl.OCCOCCN1CCN(C(c2ccccc2)c2ccc(Cl)cc2)CC1 (stereo not drawn) [HYDROXYZINE HYDROCHLORIDE] | Fulfilled |
| O=C(NCCNCC(O)COc1ccc(O)cc1)N1CCOCC1.O=C(NCCNCC(O)COc1ccc(O)cc1)N1CCOCC1.O=C(O)/C=C/C(=O)O (stereo not drawn) [XAMOTEROL FUMARATE] | Not fulfilled |
| CN(C)C(=O)Cn1cc(-c2ccc(-c3nnc4ccccn34)cc2)cn1 | Not fulfilled |
| CSc1nc(NC2CCCC2)c([N+](=O)[O-])c(NC2CCCC2)n1 | Not fulfilled |
| CC(C)C[C@H](CO)Nc1nc(S[C@@H](C)c2ccccc2)nc2nc(N)sc12 | Not fulfilled |
| COc1cc2nc(N3CCN(C(=O)c4ccco4)CC3)nc(N)c2cc1OC.Cl [PRAZOSIN HYDROCHLORIDE] | Not fulfilled |
| O=C(O)CCC/C=C\CC1C(O)CC(O)C1/C=C/C(O)COc1cccc(Cl)c1 (stereo not drawn) | Not fulfilled |
| CN1CCN2c3ccccc3Cc3ccccc3C2C1.Cl (stereo not drawn) [MIANSERIN HYDROCHLORIDE] | Not fulfilled |
| CCn1c(-c2nc3cc(C(=O)N4CCCC(N)C4)ccc3n2C)cc2ccccc21.Cl (stereo not drawn) | Fulfilled |
| Cc1sc2c(c1C)C(c1ccc(Cl)cc1)=N[C@H](CC(=O)OC(C)(C)C)c1nnc(C)n1-2 | Fulfilled |
| CN(C)C/C=C/C(=O)Nc1ccc(C(=O)N2CCCC(Nc3ncc(Cl)c(-c4c[nH]c5ccccc45)n3)C2)cc1 (stereo not drawn) | Fulfilled |
| COC(c1ccccc1)(c1ccccc1)[C@H](Oc1nc(C)cc(C)n1)C(=O)O | Not fulfilled |
| COc1ccc2[nH]c(I)c(CCNC(C)=O)c2c1 | Not fulfilled |
| Cc1cc(NC(=O)NCCN2CCC(O)(Cc3ccccc3)CC2)c2ccccc2n1 | Not fulfilled |
| CCCCCCNC(=O)Nc1ccc(S(=O)(=O)Nc2ccc(CCNC[C@H](O)COc3ccc(O)cc3)cc2)cc1 | Fulfilled |
| COc1ccc2c(c1OCc1ccccc1)C[C@@H](C(=O)O)N(C(=O)C(c1ccccc1)c1ccccc1)C2 | Not fulfilled |
| Cn1cc(C(=O)OCC2CCN(CCNS(C)(=O)=O)CC2)c2ccccc21 | Not fulfilled |
| C=CCN1C[C@H](C(=O)N(CCCN(C)C)C(=O)NCC)C[C@@H]2c3cccc4[nH]cc(c34)C[C@H]21 | Fulfilled |
| C[C@H](NC(=O)CNC(=O)c1cccc(Cl)c1)c1ccccc1 | Not fulfilled |
| COCCCN1CCC(NC(=O)c2cc(Cl)c(N)c3c2OCC3)CC1 [PRUCALOPRIDE] | Not fulfilled |
| CCC(=O)OCC(=O)[C@@]1(OC(=O)CC)[C@@H](C)C[C@H]2[C@@H]3CCC4=CC(=O)C=C[C@]4(C)[C@@]3(Cl)[C@@H](O)C[C@@]21C [BECLOMETHASONE DIPROPIONATE] | Fulfilled |
| OCCCNc1cc(-c2ccnc(Nc3cccc(Cl)c3)n2)ccn1 | Fulfilled |
| CC(C)(C)c1ccc(CSc2cnn(C(C)(C)C)c(=O)c2Cl)cc1 | Not fulfilled |
| CN1CCC(C(=O)c2cccc(NC(=O)c3c(F)cc(F)cc3F)n2)CC1 | Not fulfilled |
| COc1cc2nc(N3CCN(C(=O)COc4c(OC)cccc4C(C)C)CC3)nc(N)c2cc1OC.Cl.Cl | Fulfilled |
| CN1C[C@H](C(=O)N[C@]2(C)O[C@@]3(O)[C@@H]4CCCN4C(=O)[C@H](Cc4ccccc4)N3C2=O)C[C@@H]2c3cccc4[nH]cc(c34)C[C@H]21.CS(=O)(=O)O [DIHYDROERGOTAMINE MESYLATE] | Not fulfilled |
| C[C@@H]1CC(=O)Nc2cccc(-c3ccc4c(c3)c(-c3cnn(C)c3)nn4C)c2N1 | Not fulfilled |
| Cc1cc(=O)n(C)c2cc(N3C(=O)CC[C@H](NS(=O)(=O)CC(C)C)[C@H]3c3ccc(Cl)cc3)ccc12 | Fulfilled |
| Cc1cc(-c2ccc3c(c2)CC[C@H]3N2CC3(CCN(C(=O)Cc4cn5cc(C)sc5n4)CC3)C2)ncn1 | Not fulfilled |
| CCCCC[C@H](O)/C=C/[C@H]1[C@H](O)CC(=O)[C@@H]1CCCCCCC(=O)O | Not fulfilled |
| O=c1nc2[nH]c3ccccc3nc-2c(=O)[nH]1 | Not fulfilled |
| N[C@](CC1c2ccccc2Oc2ccccc21)(C(=O)O)[C@H]1C[C@@H]1C(=O)O | Not fulfilled |
| COCCn1c(C)c(C)s/c1=N\C(=O)C1C(C)(C)C1(C)C | Not fulfilled |
